Assay: Drug degradation in water solution at 25 degC after 5.5 hrs by reverse phase liquid chromatography
Type: physicochemical
Conditions: read-out: Drug degradation
value.kind: degraded at 5.5 h (%)

{"smiles.record": "Nc1ncn([C@@H]2O[C@H](CO)[C@@H](O)[C@H]2O)c(=O)n1", "data.value": 15}

---

Experiment: Drug degradation in water solution at 25 degC after 4 hrs by reverse phase liquid chromatography
Assay type: physicochemical
Settings: read-out: Drug degradation

{"smiles.record": "Nc1ncn([C@@H]2O[C@H](CO)[C@@H](O)[C@@H]2O)c(=O)n1", "degraded at 4 h (%)": 15}
